test: physchem; conditions: pH 7.4

compound: CC(C)(N)CNC(=O)C[C@H]1CC[C@]2(CC1)OO[C@]1(O2)C2CC3CC(C2)CC1C3 [2a, arterolane, reference compound]
solubility kinetic: 433 µM
//
compound: CC(C)(N)CNC(=O)C[C@@H]1CCC[C@]2(C1)OOC1(O2)C2CC3CC(C2)CC1C3 (some centres unmarked) [12a]
solubility kinetic: 429 µM

----------
Catalogue of microsomal CLint values
assay: Mouse liver microsome stability; details: mouse, microsomes

compound: NC(=O)CNC(=O)C[C@@H]1CCC[C@]2(C1)OOC1(O2)C2CC3CC(C2)CC1C3 (stereo partly drawn) [12b]
microsomal CLint, µL/min/mg: 18.6

compound: NC1CCN(C(=O)C[C@@H]2CCC[C@]3(C2)OOC2(O3)C3CC4CC(C3)CC2C4)CC1 (stereo partly drawn) [12i]
microsomal CLint, µL/min/mg: 8.2

compound: NCCNC(=O)C[C@@H]1CCC[C@]2(C1)OOC1(O2)C2CC3CC(C2)CC1C3 (stereo partly drawn) [12c]
microsomal CLint, µL/min/mg: 8.2

compound: CC(C)(N)CNC(=O)C[C@@H]1CCC[C@]2(C1)OOC1(O2)C2CC3CC(C2)CC1C3 (stereo partly drawn) [12a]
microsomal CLint, µL/min/mg: 4.1

compound: O=C(C[C@@H]1CCC[C@]2(C1)OOC1(O2)C2CC3CC(C2)CC1C3)N1CCNCC1 (stereo partly drawn) [12g]
microsomal CLint, µL/min/mg: 27.2

compound: CC(C)(CN)CNC(=O)C[C@@H]1CCC[C@]2(C1)OOC1(O2)C2CC3CC(C2)CC1C3 (stereo partly drawn) [12d]
microsomal CLint, µL/min/mg: 10.8
